- targetDesc: human acetyl-CoA carboxylase 2 (ACC2) (Homo sapiens, UniProt O00763)
- Construct: The cDNA encoding amino acids 144 to 2458 of human acetyl-CoA carboxylase 2; made in house; host or cells: Sf9 insect cells (baculovirus, pFastBac1)
- Sequence (O00763 144-2458): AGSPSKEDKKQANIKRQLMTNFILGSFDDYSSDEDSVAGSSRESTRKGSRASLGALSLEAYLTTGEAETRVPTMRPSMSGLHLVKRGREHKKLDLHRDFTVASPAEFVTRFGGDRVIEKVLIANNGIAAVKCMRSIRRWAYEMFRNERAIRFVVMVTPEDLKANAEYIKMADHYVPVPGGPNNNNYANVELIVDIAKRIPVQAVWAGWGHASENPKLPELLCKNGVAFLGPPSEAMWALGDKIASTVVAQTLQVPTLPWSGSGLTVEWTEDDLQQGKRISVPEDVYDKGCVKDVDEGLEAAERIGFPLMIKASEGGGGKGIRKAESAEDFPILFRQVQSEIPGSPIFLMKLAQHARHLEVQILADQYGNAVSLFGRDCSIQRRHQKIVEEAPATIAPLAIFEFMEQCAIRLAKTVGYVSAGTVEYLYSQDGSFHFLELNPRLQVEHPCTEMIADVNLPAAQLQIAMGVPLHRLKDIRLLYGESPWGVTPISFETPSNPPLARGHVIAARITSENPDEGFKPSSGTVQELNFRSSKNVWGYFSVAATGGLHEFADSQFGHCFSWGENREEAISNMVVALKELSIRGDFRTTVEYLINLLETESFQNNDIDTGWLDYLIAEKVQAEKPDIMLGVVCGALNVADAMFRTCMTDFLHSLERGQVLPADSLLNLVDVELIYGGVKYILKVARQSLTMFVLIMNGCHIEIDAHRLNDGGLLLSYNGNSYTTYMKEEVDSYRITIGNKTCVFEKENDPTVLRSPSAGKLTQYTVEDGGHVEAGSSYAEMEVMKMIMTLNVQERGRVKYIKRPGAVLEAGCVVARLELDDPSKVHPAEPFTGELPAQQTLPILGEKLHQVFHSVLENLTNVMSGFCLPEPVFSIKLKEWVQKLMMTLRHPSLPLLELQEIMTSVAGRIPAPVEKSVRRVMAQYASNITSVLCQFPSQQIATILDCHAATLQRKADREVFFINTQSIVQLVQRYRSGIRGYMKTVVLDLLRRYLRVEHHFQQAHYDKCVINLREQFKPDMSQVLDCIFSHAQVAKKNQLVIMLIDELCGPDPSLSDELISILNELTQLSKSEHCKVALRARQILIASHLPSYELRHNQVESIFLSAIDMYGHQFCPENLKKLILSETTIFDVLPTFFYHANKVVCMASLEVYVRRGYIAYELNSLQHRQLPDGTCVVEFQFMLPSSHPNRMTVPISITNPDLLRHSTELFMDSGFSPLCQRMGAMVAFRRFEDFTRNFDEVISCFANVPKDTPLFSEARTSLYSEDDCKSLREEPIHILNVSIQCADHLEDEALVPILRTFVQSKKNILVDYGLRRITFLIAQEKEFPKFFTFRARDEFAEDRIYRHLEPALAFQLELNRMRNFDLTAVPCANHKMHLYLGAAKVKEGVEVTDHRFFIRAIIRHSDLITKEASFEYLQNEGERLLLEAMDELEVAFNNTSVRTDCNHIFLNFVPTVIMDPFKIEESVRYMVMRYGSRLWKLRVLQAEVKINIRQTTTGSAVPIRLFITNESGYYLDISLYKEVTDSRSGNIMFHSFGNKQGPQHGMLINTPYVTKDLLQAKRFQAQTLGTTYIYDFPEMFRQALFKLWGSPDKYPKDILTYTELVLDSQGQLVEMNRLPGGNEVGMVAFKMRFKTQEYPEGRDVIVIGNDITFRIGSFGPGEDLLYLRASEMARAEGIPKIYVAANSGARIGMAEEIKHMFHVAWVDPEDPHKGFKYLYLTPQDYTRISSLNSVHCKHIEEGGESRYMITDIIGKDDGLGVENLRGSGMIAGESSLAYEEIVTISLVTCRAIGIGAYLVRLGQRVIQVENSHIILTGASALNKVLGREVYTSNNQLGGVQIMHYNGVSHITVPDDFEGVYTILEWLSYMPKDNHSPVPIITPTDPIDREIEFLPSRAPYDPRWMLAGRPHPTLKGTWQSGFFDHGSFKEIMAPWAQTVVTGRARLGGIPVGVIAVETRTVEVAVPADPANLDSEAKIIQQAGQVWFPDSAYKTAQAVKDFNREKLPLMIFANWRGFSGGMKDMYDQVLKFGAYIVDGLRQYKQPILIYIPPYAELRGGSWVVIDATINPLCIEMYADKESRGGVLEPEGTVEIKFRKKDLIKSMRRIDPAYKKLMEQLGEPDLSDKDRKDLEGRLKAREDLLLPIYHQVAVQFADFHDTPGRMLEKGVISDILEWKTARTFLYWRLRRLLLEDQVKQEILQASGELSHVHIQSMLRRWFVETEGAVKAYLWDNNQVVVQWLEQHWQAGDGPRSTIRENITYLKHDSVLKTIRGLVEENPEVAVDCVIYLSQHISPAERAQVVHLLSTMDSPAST
- testDetails: Acetyl-CoA carboxylase enzyme assay (malonyl-CoA formation by LC/MS/MS)
- Format: biochemical
- runParameters: recombinant human ACC2 (aa 144-2458); read-out: IC50 ACC2
reportedMetric: IC50 (nM)
Kindly provide the numeric value in nM only, without the unit symbol.

Reported IC50 for C[C@@H](NC(=O)[C@H]1CC[C@H](NS(=O)(=O)c2ccc3c(c2)NC(=O)CO3)CC1)c1ccc(F)cc1 : what is it? 344

Reported IC50 for Cn1c(CCC(=O)O)c(Cl)c2ccc(S(=O)(=O)N[C@H]3CC[C@H](C(=O)N4CCCC4c4ccc(F)cc4)CC3)cc21 (stereo partly shown) : what is it? 45

Reported IC50 for O=C(NCC1CCCCCC1)[C@H]1CC[C@H](NS(=O)(=O)c2ccc3[nH]c(-c4ccccc4)nc3c2)CC1 : what is it? 276

Reported IC50 for C[C@@H](NC(=O)C1CCC(NS(=O)(=O)c2cnc3c(c2)N[C@H](Cc2ccccc2)CS3)CC1)c1ccc(F)cc1 (stereo partly shown) : what is it? 35

Reported IC50 for C[C@@H](NC(=O)[C@H]1CC[C@H](NS(=O)(=O)c2ccc3[nH]c([C@@H]4CCCN4)nc3c2)CC1)c1ccc(F)cc1 : what is it? 507

----------
Exercise: for every item that follows, state its recorded pIC50.
- targetDesc: human acetyl-CoA carboxylase 2 (ACC2) (Homo sapiens)
- Construct: The cDNA encoding amino acids 144 to 2458 of human acetyl-CoA carboxylase 2; made in house; host or cells: Sf9 insect cells (baculovirus, pFastBac1)
- testDetails: Acetyl-CoA carboxylase enzyme assay (malonyl-CoA formation by LC/MS/MS)
- Assay type: biochemical
- runParameters: recombinant human ACC2 (aa 144-2458); read-out: IC50 ACC2
- Source text: The cDNA encoding amino acids 144 to 2458 of human acetyl-CoA carboxylase 2 (ACC2, GenBank Accession #NM_001093) was cloned into the SalI and NotI sites of pFastBac1 (Invitrogen; Carlsbad, Calif.). The resulting plasmid was used to generate a recombinant ACC2 baculovirus that was amplified and titered according to the protocols in the Bac-to-Bac baculovirus expression system manual (Invitrogen). […]
Kindly note that pIC50 refers to -log10 of the concentration in mol/L and answer with the value alone.

Reported pIC50 for CCN(C)C(=O)[C@H]1CC[C@H](NS(=O)(=O)c2ccc3cc(-c4ccc(CCC(=O)O)cc4)n(C)c3c2)CC1 [Example 365] : what is it? 6.39

Reported pIC50 for C[C@@H](NC(=O)[C@H]1CC[C@H](NS(=O)(=O)c2ccc3cc(-c4ccccc4C#N)[nH]c3c2)CC1)c1ccc(F)cc1 [Example 307] : what is it? 8.00

Reported pIC50 for Cc1nc2ccc(S(=O)(=O)N[C@H]3CC[C@H](C(=O)N4CCOCC4)CC3)cc2s1 [Example 658] : what is it? 4.14

Reported pIC50 for CCOc1ccc2cc(S(=O)(=O)N[C@H]3CC[C@H](C(=O)N4CCNCC4c4ccccc4)CC3)ccc2n1 (some centres unmarked) [Example 204] : what is it? 7.10

----------
Exercise: for every item that follows, state its recorded IC50.
- targetDesc: human acetyl-CoA carboxylase 2 (ACC2) (Homo sapiens, UniProt O00763)
- Construct: The cDNA encoding amino acids 144 to 2458 of human acetyl-CoA carboxylase 2; made in house; host or cells: Sf9 insect cells (baculovirus, pFastBac1)
- testDetails: Acetyl-CoA carboxylase enzyme assay (malonyl-CoA formation by LC/MS/MS)
- Type: biochemical
- runParameters: recombinant human ACC2 (aa 144-2458); read-out: IC50 ACC2

Reported IC50 for COc1ccc(-c2cc3ccc(S(=O)(=O)N[C@H]4CC[C@H](C(=O)N5CCOC[C@@H]5C5CC5)CC4)cc3n2C)cc1 : what is it? < 10 nM

Reported IC50 for C[C@@H](NC(=O)[C@H]1CC[C@H](NS(=O)(=O)c2ccc3[nH]c(Nc4ccc(N5CCN(C)CC5)cc4)nc3c2)CC1)c1ccccc1 : what is it? < 10 nM

Reported IC50 for Cn1c(-c2ccccc2)c(Cl)c2ccc(S(=O)(=O)N[C@H]3CC[C@H](C(=O)N4CCCC(C(C)(C)O)C4)CC3)cc21 (stereo partly drawn) : what is it? < 10 nM

----------
- targetDesc: human acetyl-CoA carboxylase 2 (ACC2) (Homo sapiens)
- Construct: The cDNA encoding amino acids 144 to 2458 of human acetyl-CoA carboxylase 2; made in house; host or cells: Sf9 insect cells (baculovirus, pFastBac1)
- testDetails: Acetyl-CoA carboxylase enzyme assay (malonyl-CoA formation by LC/MS/MS)
- Assay type: biochemical
- runParameters: recombinant human ACC2 (aa 144-2458); read-out: IC50 ACC2
reportedMetric: IC50

Reported IC50 for Cn1c(-c2ccccc2)cc2cc(S(=O)(=O)N[C@H]3CC[C@H](C(=O)N[C@@H](c4ccccc4)C(C)(C)C(=O)O)CC3)ccc21 : what is it? < 10 nM

Reported IC50 for C[C@@H](NC(=O)[C@H]1CC[C@H](NS(=O)(=O)c2ccc3[nH]c(Nc4ccccc4)nc3c2)CC1)c1ccccc1 : what is it? < 10 nM

Reported IC50 for Cn1c(-c2ccc(CCC(=O)O)cc2)cc2ccc(S(=O)(=O)N[C@H]3CC[C@H](C(=O)N4CCCC4c4ccc(F)cc4)CC3)cc21 (some centres unmarked) : what is it? < 10 nM

Reported IC50 for CC(NC(=O)[C@H]1CC[C@H](NS(=O)(=O)c2cnc3ccccc3c2)CC1)c1cnn(C)c1 (some centres unmarked) : what is it? > 35000 nM

Reported IC50 for C[C@H]1CCCCN1C(=O)[C@H]1CC[C@H](NS(=O)(=O)c2ccc3c(C#N)c(-c4ccc(CCC(=O)O)cc4)n(C)c3c2)CC1 : what is it? < 10 nM

----------
- targetDesc: human acetyl-CoA carboxylase 2 (ACC2) (Homo sapiens)
- Construct: The cDNA encoding amino acids 144 to 2458 of human acetyl-CoA carboxylase 2; made in house; host or cells: Sf9 insect cells (baculovirus, pFastBac1)
- testDetails: Acetyl-CoA carboxylase enzyme assay (malonyl-CoA formation by LC/MS/MS)
- Format: biochemical
- runParameters: recombinant human ACC2 (aa 144-2458); read-out: IC50 ACC2
reportedMetric: pIC50
Kindly note that pIC50 refers to -log10 of the concentration in mol/L and answer with the value alone.

Reported pIC50 for C[C@@H](NC(=O)[C@H]1CC[C@H](NS(=O)(=O)c2ccc3[nH]c(-c4cccc(C(=O)O)c4)nc3c2)CC1)c1ccccc1 [Example 279] : what is it? 7.00

Reported pIC50 for CC(C)(C)c1nnc([C@H]2CC[C@H](NS(=O)(=O)c3ccc4[nH]c(-c5ccc(N6CCNCC6)cc5)nc4c3)CC2)o1 [Example 655] : what is it? 6.85

Reported pIC50 for CCN(C)C(=O)[C@H]1CC[C@H](NS(=O)(=O)c2ccc3[nH]c(-c4ccc(N5CCN(C)CC5)cc4)nc3c2)CC1 [Example 567] : what is it? 7.19

Reported pIC50 for CC1CC(C)CN(C(=O)[C@H]2CC[C@H](NS(=O)(=O)c3ccc4[nH]c(-c5ccccc5)nc4c3)CC2)C1 (some centres unmarked) [Example 626] : what is it? 7.11

Reported pIC50 for CCOC(=O)CCc1c(Cl)c2ccc(S(=O)(=O)N[C@H]3CC[C@H](C(=O)N4CCCC4c4ccc(F)cc4)CC3)cc2n1C (some centres unmarked) [Example 371] : what is it? 6.94

Reported pIC50 for COCCOc1ccc(-c2cc3ccc(S(=O)(=O)N[C@H]4CC[C@H](C(=O)N[C@H](CO)C5CC5)CC4)cc3n2C)cc1 [Example 449] : what is it? 7.12

Reported pIC50 for CN1CCN(c2ccc(-c3nc4cc(S(=O)(=O)N[C@H]5CC[C@H](c6nnc(C(C)(C)C)o6)CC5)ccc4[nH]3)cc2)CC1 [Example 10] : what is it? 6.94

Reported pIC50 for Cc1ccccc1-c1nc2cc(S(=O)(=O)N[C@H]3CC[C@H](C(=O)N[C@H](C)c4ccc(F)cc4)CC3)cnc2s1 [Example 75] : what is it? 7.02

----------
- targetDesc: human acetyl-CoA carboxylase 2 (ACC2) (Homo sapiens, UniProt O00763)
- Construct: The cDNA encoding amino acids 144 to 2458 of human acetyl-CoA carboxylase 2; made in house; host or cells: Sf9 insect cells (baculovirus, pFastBac1)
- testDetails: Acetyl-CoA carboxylase enzyme assay (malonyl-CoA formation by LC/MS/MS)
- Format: biochemical
- runParameters: recombinant human ACC2 (aa 144-2458); read-out: IC50 ACC2
- Source text: The cDNA encoding amino acids 144 to 2458 of human acetyl-CoA carboxylase 2 (ACC2, GenBank Accession #NM_001093) was cloned into the SalI and NotI sites of pFastBac1 (Invitrogen; Carlsbad, Calif.). The resulting plasmid was used to generate a recombinant ACC2 baculovirus that was amplified and titered according to the protocols in the Bac-to-Bac baculovirus expression system manual (Invitrogen). […]
reportedMetric: IC50 (nM)
Kindly provide the numeric value in nM only, without the unit symbol.

Reported IC50 for CC(C)(O)[C@H]1CCCN1C(=O)[C@H]1CC[C@H](NS(=O)(=O)c2ccc3cc(-c4ccccc4)[nH]c3c2)CC1 : what is it? 20

Reported IC50 for CC(=O)Nc1ccc(-c2nc3ccc(S(=O)(=O)N[C@H]4CC[C@H](C(=O)OC(C)C)CC4)cc3[nH]2)cc1 : what is it? 45

Reported IC50 for CCOC(=O)Nc1ccc(Nc2nc3cc(S(=O)(=O)Nc4ccc(C(=O)OC(C)C)cc4)ccc3[nH]2)cc1 : what is it? 524

Reported IC50 for O=C([C@H]1CC[C@H](NS(=O)(=O)c2cnc3c(c2)NCCN3)CC1)N1CCNCC1c1ccccc1 (stereo partly drawn) : what is it? 245

Reported IC50 for Cn1ccc2cc(S(=O)(=O)N[C@H]3CC[C@H](C(=O)N[C@H](CCO)c4ccccc4)CC3)ccc21 : what is it? 138

Reported IC50 for CCOc1ccc2cc(S(=O)(=O)N[C@H]3CC[C@H](C(=O)N[C@H](CC(=O)O)c4ccccc4)CC3)ccc2n1 : what is it? 213

Reported IC50 for CC(C)OC(=O)c1ccc(NS(=O)(=O)c2ccc3nc(-c4ccc(Oc5ccccc5)cc4)[nH]c3c2)cc1 : what is it? 22100

Reported IC50 for [2H]C1([2H])Nc2cc(S(=O)(=O)NC3CCC(C(=O)N[C@H](C)c4ccc(F)cc4)CC3)cnc2NC1([2H])[2H] (stereo partly drawn) : what is it? 75

Reported IC50 for C=Cc1ccc2cc(S(=O)(=O)N[C@H]3CC[C@H](C(=O)N[C@H](C)c4ccc(F)cc4)CC3)ccc2n1 : what is it? 405

Reported IC50 for Cc1ccccc1-c1cc2ccc(S(=O)(=O)N[C@H]3CC[C@H](C(=O)N4CCNC(C(F)(F)F)C4)CC3)cc2[nH]1 (stereo partly drawn) : what is it? 85

Reported IC50 for CCOC(=O)C1CCCCN1C(=O)[C@H]1CC[C@H](NS(=O)(=O)c2ccc3cc(-c4ccc(COC)cc4)n(C)c3c2)CC1 (stereo partly drawn) : what is it? 240
